Where do these numbers come from? They come from patent US7863449B2.

Molecular target: M4 muscarinic receptor (Homo sapiens)
Construct: expressed in transfected cells; host or cells: CHO (M4-CHO)
Sequence (P08173 whole entry): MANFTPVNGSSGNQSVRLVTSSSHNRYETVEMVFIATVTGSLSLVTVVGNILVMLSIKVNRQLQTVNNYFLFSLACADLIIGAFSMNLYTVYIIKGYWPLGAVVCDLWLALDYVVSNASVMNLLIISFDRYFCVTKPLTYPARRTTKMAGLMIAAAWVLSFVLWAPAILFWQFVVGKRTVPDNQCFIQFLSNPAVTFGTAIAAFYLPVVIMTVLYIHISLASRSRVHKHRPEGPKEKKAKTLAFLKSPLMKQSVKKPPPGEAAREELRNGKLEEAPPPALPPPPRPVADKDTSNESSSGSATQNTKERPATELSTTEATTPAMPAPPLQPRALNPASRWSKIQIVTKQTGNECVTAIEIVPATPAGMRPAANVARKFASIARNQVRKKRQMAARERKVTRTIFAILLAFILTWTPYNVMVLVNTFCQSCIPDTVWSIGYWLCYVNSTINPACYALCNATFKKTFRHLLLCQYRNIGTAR
Experiment: Functional mobilization of intracellular calcium (FLIPR), M4-CHO cells
Format: cell-based
Settings: 100% efficacy is the maximum response obtained using Carbachol as a control
REPORTED_METRIC: Emax

Recorded results for 8 compounds are shown here.
CCOC(=O)N1CCC(N2CCC3(CC2)CN(C(=O)C2(C)CC2)Cc2ccccc23)CC1 [compound 295]; < 25%
CC(=O)N1Cc2ccccc2C2(CCN(Cc3ccccc3F)CC2)C1 [compound 199]; 25 to 100%
CCCC(=O)N1Cc2ccccc2C2(CCN(C3CCN(C(=O)OCC)CC3)CC2)C1 [compound 185]; 25 to 100%
CCOC(=O)N1CCC(N2CCC3(CC2)CN(C(=O)OCC(C)C)Cc2ccccc23)CC1 [compound 186]; 25 to 100%
CCOC(=O)N1C2CCC1CC(N1CCC3(CC1)CN(C(=O)NC1CCCCC1)Cc1ccccc13)C2 (stereo not drawn) [compound 358]; 25 to 100%
CCOC(=O)N1CCC(CN2CCC3(CC2)CN(S(=O)(=O)c2c(C)noc2C)Cc2ccccc23)CC1 [compound 155]; 25 to 100%
COc1ccccc1CN1CCC2(CC1)CN(C(C)=O)Cc1ccccc12 [compound 150]; < 25%
CCOC(=O)N1CCC(N2CCC3(CC2)CN(C(=O)Oc2ccc(F)cc2)Cc2ccccc23)CC1 [compound 342]; 25 to 100%

Qu. Requested field: Emax. Item: CCCOC(=O)N1Cc2ccccc2C2(CCN(C3CC4CCC(C3)N4C(=O)OCC)CC2)C1 (stereo not drawn) [compound 99]
Ans. 25 to 100%

Qu. // lookup Emax for COc1cccc(CN2CCC3(CC2)CN(C(C)=O)Cc2ccccc23)c1 [compound 121]
Ans. < 25%

Qu. What value of Emax has been reported for the following compound? CC(=O)N1Cc2ccccc2C2(CCN(C3CCOCC3)CC2)C1 [compound 215]
Ans. 25 to 100%

Qu. Can you look up the measured Emax of CCOC(=O)N1CCC(N2CCC3(CC2)CN(CCC(C)C)Cc2ccccc23)CC1 [compound 313] for me?
Ans. 25 to 100%

Qu. Which Emax is reported for this compound? CCOC(=O)N1C2CCC1CC(N1CCC3(CC1)CN(S(=O)(=O)c1cccs1)Cc1ccccc13)C2 (stereo not drawn) [compound 316]
Ans. 25 to 100%
